Molecular target: BpsCAβ (β-carbonic anhydrase) (Burkholderia pseudomallei)
Sequence (Q63Y17 1-256 limits assumed): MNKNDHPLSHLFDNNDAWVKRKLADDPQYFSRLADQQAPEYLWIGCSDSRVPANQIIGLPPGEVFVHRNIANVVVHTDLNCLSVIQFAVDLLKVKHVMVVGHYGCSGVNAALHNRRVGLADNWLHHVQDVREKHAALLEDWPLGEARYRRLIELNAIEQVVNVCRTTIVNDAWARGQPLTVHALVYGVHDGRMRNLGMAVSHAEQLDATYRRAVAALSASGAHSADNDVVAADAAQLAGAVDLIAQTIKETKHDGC
Assay: biochemical

# COMPOUND, LT_GT_EQ, Ki, µM
measured = [
    ("Nc1ccc(S(N)(=O)=O)cc1Cl [compound 8, 8]", ">", 50),
    ("CC1(C)O[C@@H]2[C@@H](CO[C@@]3(COS(N)(=O)=O)OC(C)(C)O[C@@H]23)O1 [TPM, topiramate]", ">", 50),
    ("Cc1ccc(S(N)(=O)=O)cc1 [compound 4, 4]", ">", 50),
    ("CC(=O)N=c1sc(S(N)(=O)=O)nn1C [MZA, methazolamide]", "=", 0.186),
    ("NS(=O)(=O)Cc1noc2ccccc12 [ZNS, zonisamide]", "=", 4.06),
]

====

Target: BpsCAβ (β-carbonic anhydrase) (Burkholderia pseudomallei)
Experiment: biochemical

# COMPOUND, UNIT_ABBREVIATION, LT_GT_EQ, Ki
records = [
    ("NS(=O)(=O)c1cccc(S(N)(=O)=O)c1", "µM", "=", 3.17),
    ("Nc1ccc(S(N)(=O)=O)cc1Br", "µM", ">", 50),
    ("Nc1nnc(S(N)(=O)=O)s1", "µM", "=", 3.06),
    ("Nc1ccc(S(N)(=O)=O)cc1 [compound 2, sulfanilamide]", "µM", "=", 3.89),
    ("Nc1ccc(S(=O)(=O)Nc2nnc(S(N)(=O)=O)s2)cc1 [compound 20, aminobenzolamide]", "µM", "=", 0.266),
]

====

Reported values of Ki for individual entries
Target: BpsCAβ (β-carbonic anhydrase) (Burkholderia pseudomallei)
Assay: biochemical
MEASUREMENT_NAME: Ki

# MOLECULE, REPORTED
measured = [
    ("NS(=O)(=O)c1cc(Cl)cc(Cl)c1O", "4.1 µM"),
    ("Cc1ccc(-c2cc(C(F)(F)F)nn2-c2ccc(S(N)(=O)=O)cc2)cc1", "> 50 µM"),
    ("Nc1cccc(S(N)(=O)=O)c1 [compound 1, metanilamide]", "> 50 µM"),
    ("NCc1ccc(S(N)(=O)=O)cc1", "3.9 µM"),
    ("Cn1nc(S(N)(=O)=O)sc1=N", "2.5 µM"),
    ("NS(=O)(=O)c1ccc(S(=O)(=O)Nc2cccc3c(Cl)c[nH]c23)cc1", "4.37 µM"),
    ("CCN[C@H]1CN(CCCOC)S(=O)(=O)c2sc(S(N)(=O)=O)cc21 [BRZ, brinzolamide]", "4.27 µM"),
    ("NS(=O)(=O)c1cc(Cl)c(Cl)c(S(N)(=O)=O)c1 [DCP, dichlorophenamide]", "0.529 µM"),
    ("Nc1ccc(S(N)(=O)=O)cc1F", "> 50 µM"),
]
